assay: chemical genetic growth profiling, strain panel (AID 1159580);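 also: tested at 20 µM; growth read once vehicle control cultures reached saturation at 30 °C; 1 = growth at the plate median or of vehicle wells; lower values mean less growth of the strain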; settings: S. cerevisiae deletion strains, growth OD, locus YCL061C, strain MRC1
About 2,000 (36%) of roughly 5,500 compounds were called active. Not shown: some 18% with an inconclusive outcome. Rule as the data show it: active = normalized growth mostly below about 0.91 (no sharp cut-off); inconclusive = no clear call, values can overlap the other calls; inactive = mostly above about 0.92. The list shows a part of the results.
Choose one outcome from this list and give only that: true (1) = active, false (0) = inactive

Query :: # fetch the recorded call for COc1cc2c(cc1OC)[C@@]13CCN4CC5=CCOC6CC(=O)N2C1[C@H]6[C@H]5C[C@H]43 (stereo partly specified) here
Result :: false (0)

Query :: Okay, and "CN(C)/C=C1/C(=O)NN=C1CSc1ccccn1" ?
Result :: false (0)

Query :: Entry to check: "Cc1cc(=O)n(-c2ccccc2)n1C"
Result :: false (0)

Query :: Continue with "CCCCc1nc(Cl)c(CO)n1Cc1ccc(-c2ccccc2-c2nn[nH]n2)cc1"
Result :: false (0)

Query :: Repeat for the following molecule: "O=C(O)c1cc(=O)c2c(Cl)cc(Cl)cc2[nH]1"
Result :: false (0)

Query :: Same thing, different molecule: "CC(C)(C)c1ccc(-c2cc(N)c(C(N)=O)s2)cc1"
Result :: false (0)

Query :: What about this molecule? "CC(C)(C)c1ccc(CSc2nc(N)cc(=O)[nH]2)cc1"
Result :: false (0)

Query :: Proceed to "COc1ccc([C@H]2COc3c(ccc(O)c3OC)C2)c(OC)c1O"
Result :: false (0)

Query :: Follow-up item: "COc1ccc2c(=O)ccoc2c1"
Result :: false (0)

Query :: Also, CC(=O)O[C@H]1CC[C@]2(C)C3CC(=O)[C@]4(C)C(C(C)=O)=CCC4C3CC[C@H]2C1 (stereo partly specified) please.
Result :: false (0)

Query :: Thanks! And "CC1=NN(c2ccccc2)C(=O)C1" ?
Result :: false (0)

Query :: Would you mind doing "CCC1(CC)C(=O)C=CNC1=O" as well?
Result :: false (0)

Query :: What about NC[C@H]1O[C@H](O[C@H]2C(O[C@@H]3O[C@H](CO)[C@@H](O)[C@H]3O)[C@@H](O)[C@H](N)C[C@@H]2N)[C@H](N)[C@@H](O)[C@@H]1O (stereo partly specified) ?
Result :: false (0)

Query :: Record: "CCOc1ccc(C(=O)c2ccc(OC)c(O)c2O)cc1"
Result :: false (0)

Query :: # repeat for "Cc1ccc(-c2nn(-c3ccccc3)c(=O)c3ccccc23)cc1C"
Result :: false (0)

Query :: Now give it for "Cc1ccc(N=Cc2cccs2)cc1Cl" too.
Result :: false (0)

Query :: Field entry: "CN1CCN(CC(=O)N2c3ccccc3C(=O)Nc3cccnc32)CC1"
Result :: false (0)

Query :: Please answer likewise for "N#C/C(=C\N(CCS(=O)(=O)c1ccc(Cl)cc1)Cc1cccs1)S(=O)(=O)c1ccc(Cl)cc1"
Result :: false (0)

Query :: "CC(=O)Oc1cccc2c1C(=O)c1c(OC(C)=O)cc(C(=O)O)cc1C2=O" ?
Result :: true (1)

Query :: Another molecule: "CN(C)CCc1c[nH]c2ccc(C[C@H]3COC(=O)N3)cc12"
Result :: false (0)

Query :: # repeat for "CN1CCN(CCC=C2c3ccccc3Sc3ccc(S(=O)(=O)N(C)C)cc32)CC1"
Result :: false (0)

Query :: Try this molecule next: "NCCc1cc(O)c(O)cc1O"
Result :: false (0)

Query :: Also "CCN(CC)CCNC(=O)c1cc(Cl)c(N)cc1OC" ?
Result :: false (0)

Query :: // query: "O/N=C\c1sccc1Oc1ccccc1"
Result :: false (0)

Query :: Field entry: "Cc1cc(C(C)(C)C)c(O)c(C)c1CC1=NCCN1"
Result :: false (0)

Query :: Input "COc1cccc(C(=O)N/N=C(/C)c2ccccc2O)c1"
Result :: false (0)

Query :: Also need CC1(C)C(=O)[C@@H]2C[C@@]3(O)C4=CC(=O)O[C@@H](c5ccoc5)[C@]4(C)CCC3[C@@](C)(C2=O)[C@H]1CC(=O)O (stereo partly specified) , thanks.
Result :: false (0)

Query :: Similarly, "O=C(O)c1cc(=O)c2cccc(O)c2[nH]1" ?
Result :: false (0)

Query :: Also, "Cc1c(NC(=O)c2cccnc2)c(=O)n(-c2ccccc2)n1C" please.
Result :: false (0)

Query :: Now try "N#Cc1sccc1Br" .
Result :: false (0)

Query :: Next record, please: "CC1=C(O)C(=O)C=C2C1=CC=C1[C@@]2(C)CC[C@@]2(C)[C@@H]3C[C@](C)(C(=O)O)CC[C@]3(C)CC[C@]12C"
Result :: true (1)

Query :: What about this molecule? CNS(=O)(=O)c1cc(Br)ccc1S(=O)c1ccccc1C(=O)O (stereo unspecified)
Result :: false (0)

Query :: Another molecule to check: "NS(=O)(=O)c1ccc(-n2ncc3ccccc3c2=O)cc1"
Result :: false (0)

Query :: Follow-up entry: CC1=CC2C(C(C)C)CCC(C)(O)C2CC1 (stereo unspecified)
Result :: false (0)

Query :: Queued: C[C@]12CCC(=O)C=C1CCC1C2C(=O)C[C@@]2(C)C1CC[C@]2(O)C(=O)CO (stereo partly specified)
Result :: false (0)

Query :: Now the same for "C=CCn1c(COc2c(Br)cc(C)c3c2CCC3)n[nH]c1=S"
Result :: false (0)

Query :: Now give it for "COc1cc(-c2oc3cc(O)ccc3c(=O)c2O)ccc1O" too.
Result :: false (0)

Query :: Now the same for CC(=O)O[C@@H]1CC[C@]2(C)C3CC[C@]4(C)C(=O)CCC4C3CC[C@H]2C1 (stereo partly specified)
Result :: false (0)

Query :: Check "CC(C)S(=O)(=O)c1csc(C(N)=O)c1Cl" too.
Result :: false (0)

Query :: What about this molecule? "NC(=O)N1c2ccccc2C=Cc2ccccc21"
Result :: false (0)

Query :: Same question for "NC(N)=NC(N)=Nc1ccccc1" please.
Result :: false (0)

Query :: Another molecule to check: "O=C(CCc1ccc(O)cc1)c1c(O)cc(O)cc1O[C@@H]1O[C@H](CO)[C@@H](O)[C@H](O)[C@H]1O"
Result :: false (0)

Query :: Also check "COc1ccc2c(c1)[C@]13CCCC[C@H]1[C@H](C2)N(C)CC3"
Result :: false (0)

Query :: Repeat with CCC1C(=O)OCC1Cc1cncn1C (stereo unspecified)
Result :: false (0)

Query :: Subsequent entry: C#C[C@]1(O)CCC2C3CCC4=Cc5oncc5C[C@]4(C)C3CC[C@@]21C (stereo partly specified)
Result :: false (0)

Query :: # iterate: "COc1c2occc2c(OC)c2c(=O)cc(C)oc12"
Result :: false (0)
